Reference for the values: paper PMC7381729

- PROTOCOL DESCRIPTION: Biodistribution in Daudi xenograft bearing mice
- Assay type: in vivo, mouse
- EXPERIMENTAL SETUP: female, CB-17 SCID, mouse, colon, iv, total radioactivity, 6h p.i., i.v.; means ± SD, n=4-5; read-out: Biodistribution colon
Where a SMILES comes first, the peptide text is derived from it. Side-chain parts run from the residue outwards. [ ]: non-standard residue; d: D form. The star is where a group is joined. DOTA = O=C(O)CN1CCN(CC(=O)O)CCN(CC(=O)*)CCN(CC(=O)O)CC1; dTyr(3-I) = N[C@H](Cc1ccc(O)c(I)c1)C(=O)O; 2Nal = N[C@@H](Cc1ccc2ccccc2c1)C(=O)O; dNMeOrn = CN[C@H](CCCN)C(=O)O; 4Abz = Nc1ccc(C(=O)O)cc1
Each entry below lists one item and its recorded tissue uptake at 6 h value.
Dear colleague, please return just the value in %ID/g, with no unit written.

Which tissue uptake at 6 h value belongs to C[C@@H](NC(=O)[C@@H](CCCNC(=N)N)NC(=O)CN1CCN(CC(=O)O)CCN(CC(=O)O)CCN(CC(=O)O)CC1)C(=O)Nc1ccc(C(=O)NCCC[C@@H]2C(=O)N[C@@H](CCCNC(=N)N)C(=O)N[C@@H](Cc3ccc4ccccc4c3)C(=O)NCC(=O)N[C@H](Cc3ccc(O)cc3)C(=O)N2C)cc1 [[^177Lu]DOTA-r-a-ABA-CPCR4, metal not drawn] (cyclo([2Nal]G[dY][dNMeOrn]([4Abz-dA-dR-DOTA])R)) ?
0.65

Another compound to look at: C[C@@H](NC(=O)[C@@H](CCCNC(=N)N)NC(=O)CN1CCN(CC(=O)O)CCN(CC(=O)O)CCN(CC(=O)O)CC1)C(=O)Nc1ccc(C(=O)NCCC[C@@H]2C(=O)N[C@@H](CCCNC(=N)N)C(=O)N[C@@H](Cc3ccc4ccccc4c3)C(=O)NCC(=O)N[C@H](Cc3ccc(O)c(I)c3)C(=O)N2C)cc1 [[^177Lu]DOTA-r-a-ABA-iodoCPCR4, metal not drawn] (cyclo([2Nal]G[dTyr(3-I)][dNMeOrn]([4Abz-dA-dR-DOTA])R))
0.49
